- Tested on: Plasmodium berghei
- Experiment description: Antimalarial activity against Plasmodium berghei ANKA infected in C57BL/6J mouse assessed as decrease of parasitemia level at 5 mg/kg, po administered after 24 hrs post infection measured after 3 days in presence of 15 mg/kg of mefloquine hydrochloride relative to control
- Type: functional
- Design: scale not given: the % may be the effect or the level left
Readout type: Activity

C[C@H]1[C@@H]([C@@H](O)C[C@H]2O[C@@H]3O[C@@]4(C)CC[C@H]5[C@H](C)CC[C@@H]([C@H]2C)[C@@]35OO4)O[C@@H]2O[C@@]3(C)CC[C@H]4[C@H](C)CC[C@@H]1[C@@]24OO3
>99.9%

# value lookup — system Plasmodium berghei, readout Activity, item "C[C@H]1[C@@H]([C@H](C[C@H]2O[C@@H]3O[C@@]4(C)CC[C@H]5[C@H](C)CC[C@@H]([C@H]2C)[C@@]35OO4)OC(=O)Nc2ccc([N+](=O)[O-])cc2)O[C@@H]2O[C@@]3(C)CC[C@H]4[C@H](C)CC[C@@H]1[C@@]24OO3"
>99.9%
